# Tested on: T47D
# assay_method_text: NCI tumour cell line growth inhibition, 48 h
Calls of active or inactive are those of the source. Cut-off read from the data, not from the text of the source: active = GI50 up to about 1.1 µM and inactive = higher.
Provide the recorded GI50 for the entries that follow.

Known GI50 results, listed for orientation:
molecule: Cc1c(C(=O)O)sc2nc[nH]c(=O)c12
GI50: > 100 µM (inactive)
//
molecule: CCON=C1C(C)(C)C(C)(C)C(C)(C)C1(C)C
GI50: > 100 µM (inactive)
//
molecule: C=CC(C)(C)C1(CC(OC)OC)C(=O)N(C)c2ccccc21 (configuration not stated)
GI50: > 25 µM (inactive)

// batch mode: one GI50 value per listed entry
1. COc1ccc2cc3c4cc5c(cc4cc[n+]3cc2c1OC)OCO5
2. O=[As](O)(O)c1ccc(/N=N/c2ccc(O)cc2)cc1
3. CC1(C2(C)OC(=O)c3ccccc32)OC(=O)c2ccccc21 (configuration not stated)
4. O=C(/C=C\c1ccccc1)Oc1ccc(/C=C2\CCCCC2=O)cc1
5. Cn1ncc2c(Cl)ncnc21

["17.4 µM (inactive)", "> 100 µM (inactive)", "> 100 µM (inactive)", "92.5 µM (inactive)", "> 100 µM (inactive)"]

// batch mode: one GI50 value per listed entry
1. Cn1cnc([N+](=O)[O-])c1[Se]c1nc(N)nc2c1ncn2C1OC(CO)C(O)C1O (configuration not stated)
2. S=c1nc(N/N=C/c2cccs2)c2cn[nH]c2[nH]1
3. O=[N+]([O-])c1ccc(CSCc2ccc(Cl)cc2)cc1
4. CC[N+](C)(CC)CCN1C(=O)c2ccccc2S1(=O)=O

> 100 µM (inactive)
23.7 µM (inactive)
74.3 µM (inactive)
> 100 µM (inactive)

---

# System: HOP-92
# assay_method_text: NCI tumour cell line growth inhibition, 48 h
Activity calls are given as the source filed them. Cut-off read from the data, not from the text of the source: active = GI50 up to about 1.1 µM and inactive = higher.
Provide the recorded GI50 for the entries that follow.

Known GI50 results, listed for orientation:
molecule: Cc1cccc(/N=C/C=C(\Cl)c2ccc3ccccc3c2)c1
GI50: 24.1 µM (inactive)
--
molecule: CC(CSc1nc2c(c(=N)n1-c1ccccc1)c(=S)n(-c1ccccc1)c(=S)n2-c1ccccc1)CN(C)C (centres undefined)
GI50: 1.56 µM (inactive)
--
molecule: CC[C@H]1CC(=O)c2c(cc3c(c2O)C(=O)c2ccccc2C3=O)[C@@]1(C#N)C(=O)OC(C)(C)C
GI50: 9.31 µM (inactive)
--
molecule: CCc1n[nH]c(=O)n1/N=C/c1c(O)ccc2ccccc12
GI50: > 100 µM (inactive)
--
molecule: CC[C@@H](/C=C\CCC(=O)C[C@H](O)CCC=C(C)C)O[Si](C(C)C)(C(C)C)C(C)C
GI50: 81.7 µM (inactive)
--
molecule: COc1ccccc1C(=O)c1c(NCc2ccccc2)c(=O)c1=O
GI50: > 100 µM (inactive)
--
molecule: CCOC(=O)c1c(-c2ccc(OC)cc2)c(C#N)c(=S)n(C2OC(COC(C)=O)C(OC(C)=O)C(OC(C)=O)C2OC(C)=O)c1-c1ccccc1 (centres undefined)
GI50: 17.8 µM (inactive)
--
molecule: CCOc1ccc(NC(=O)/C(=C/c2ccccc2)C(C)=O)cc1
GI50: 14.1 µM (inactive)

Alright, here's another molecule for you.
State the recorded GI50 for this entry: "CC(=O)Nc1ccc2c(C(=O)O)c(C)c(O)nc2n1"
5.27 µM (inactive)

---

# System: TK-10
# assay_method_text: NCI tumour cell line growth inhibition, 48 h
Activity calls are given as the source filed them. Cut-off read from the data, not from the text of the source: active = GI50 up to about 1.1 µM and inactive = higher.
Provide the recorded GI50 for the entries that follow.

Known GI50 results, listed for orientation:
compound: CC1=C2CN(C(=O)OCC(C)C)CCC2C2=C(C(=O)c3ccccc3C2=O)C1C (stereo not drawn)
target: TK-10
GI50: > 10 µM (inactive)
--
compound: Cc1cccc(/N=C/C=C(\Cl)c2ccc3ccccc3c2)c1
target: TK-10
GI50: 19.8 µM (inactive)
--
compound: COc1cc(C2C(Cl)C(=O)N2c2ccc(Br)cc2)cc(I)c1O (stereo not drawn)
target: TK-10
GI50: 90.8 µM (inactive)
--
compound: CN(C)/N=N/c1ccccc1
target: TK-10
GI50: > 100 µM (inactive)
--
compound: CCOC(=O)CC[C@H](NC(=O)c1ccc(CNc2nc3cc(C(F)(F)F)ccc3nc2C(=O)OCC)cc1)C(=O)OCC
target: TK-10
GI50: 15.4 µM (inactive)

// batch mode: one GI50 value per listed entry
1. CC(CO)C1=CC(C#CCOCc2ccccc2)N(C(=O)Oc2ccccc2)c2ccccc21 (stereo not drawn)
2. CN1CN(c2ccccc2)C2(CCN(CCCSc3ccccc3NC(=O)/C=C/c3ccccc3)CC2)C1=O
3. O=C1CCC2(CCO1)OCCO2
4. COc1ccc(-c2coc3cc(O)ccc3c2=O)cc1
5. C=CC[C@@]1(OC(C)=O)C(=O)C(=O)OC1C1COC(C)(C)O1 (stereo partly drawn)

1. 48.1 µM (inactive)
2. 8.39 µM (inactive)
3. > 100 µM (inactive)
4. > 100 µM (inactive)
5. 16.3 µM (inactive)

// batch mode: one GI50 value per listed entry
1. CN1CCC23c4c5ccc(Oc6nnnn6-c6ccccc6)c4OC2c2[nH]c4ccccc4c2CC3(O)C1C5 (stereo not drawn)
2. COC(=O)NCCc1n[nH]c2c1C(=O)C=C(OC)C2=O
3. O=C(NN1C(=O)CSC1c1cccc(F)c1)c1ccncc1 (stereo not drawn)
4. C=CCc1cc(C=C(C#N)C#N)cc(OC)c1O

1: 1.87 µM (inactive); 2: 43.9 µM (inactive); 3: > 100 µM (inactive); 4: > 100 µM (inactive)

---

# Test system: HOP-62
# assay_method_text: NCI tumour cell line growth inhibition, 48 h
Calls of active or inactive are those of the source. Rule as the data show it: active = GI50 up to about 1.1 µM and inactive = higher.
Provide the recorded GI50 for the entries that follow.

Known GI50 results, listed for orientation:
molecule: CCOC(=O)C1=C(N2CCCC2)NC(=O)CC1=O
target: HOP-62
GI50: > 100 µM (inactive)
--
molecule: CC[C@@]1(O)C(=O)OCc2c1cc1n(c2=O)Cc2cc3ccccc3nc2-1 [CAMPTOTHECIN]
target: HOP-62
GI50: 0.0116 µM (active)
--
molecule: COc1ccc(SCc2cc(OC)c(OC)c(OC)c2)cc1OC
target: HOP-62
GI50: > 100 µM (inactive)
--
molecule: CC(SC(=S)N1CCOCC1)c1cc2oc(=O)n(C)c2cc1Cl (centres undefined)
target: HOP-62
GI50: > 100 µM (inactive)
--
molecule: CC(C)c1ccc(O)c(Cc2cc(C(C)C)cc(Cc3cc(C(C)C)ccc3O)c2O)c1
target: HOP-62
GI50: 1.69 µM (inactive)

// batch mode: one GI50 value per listed entry
1. Cc1ccc([S+](c2ccccc2)c2cc(C)ccc2C)cc1.O=C(OC(C(=O)[O-])C(OC(=O)c1ccccc1)C(=O)O)c1ccccc1 (centres undefined)
2. CC1CCC2C(C)C3C(CC4C5CC=C6CC(OC7OC(CO)C(O)C(OC8OC(CO)C(O)C(O)C8O)C7OC7OC(C)C(O)C(O)C7O)CCC6(C)C5CCC43C)N2C1 (centres undefined)
3. S=C1CCSc2c(ccc3ccccc23)N1
4. CCCNC(=S)N/C=C1\C(=O)Nc2ccccc2C1=O

1: 21.5 µM (inactive); 2: 17.3 µM (inactive); 3: 41.4 µM (inactive); 4: > 100 µM (inactive)

---

# System: T47D
# assay_method_text: NCI tumour cell line growth inhibition, 48 h
The source made the active and inactive calls. Rule as the data show it: active = GI50 up to about 1.1 µM and inactive = higher.
The reply should be one of these categories: y = active, n = inactive

compound: CCOC(=O)C1=C(N2CCCC2)NC(=O)CC1=O
assigned_class: n
//
compound: COc1cc2cc(C(=O)N3CC(CCl)c4ccc(NO)cc43)[nH]c2c(OC)c1OC (stereo unspecified)
assigned_class: y

State the result this test recorded for OC(CC(O)(C(F)(F)F)C(F)(F)F)c1ccc(C(O)CC(O)(C(F)(F)F)C(F)(F)F)cc1 (stereo unspecified) .
n

State the result this test recorded for "NNC(=O)CC(=O)Nc1ccccc1Cl" .
n

State the result this test recorded for COc1cccc(/C=C/C2=NN(c3cccc(S(=O)(=O)O)c3)C3(C2)SCC(=O)N3c2nc3ccccc3s2)c1 (stereo unspecified) .
n

State the result this test recorded for "CC(=O)Oc1ccc(/C=C/C(=O)O[C@H]2CCCC[C@@H]2OC(=O)/C=C/c2ccc(OC(C)=O)c(OC(C)=O)c2)cc1OC(C)=O" .
n

State the result this test recorded for "CN(C)C(=S)SN(C)C(=O)Nc1ccccc1" .
n

State the result this test recorded for "O=C(Nc1ccc(Cl)cc1)c1cc2c(cc1Cl)Sc1nccn1S2(=O)=O" .
n

State the result this test recorded for "CCOP(=O)(OCC)/C(=C/NC(=S)c1ccncc1)C(=O)OC" .
n

State the result this test recorded for "O=C(O)c1c(Br)c(Br)c(Br)c(Br)c1C1c2ccc(O)cc2Oc2cc(O)ccc21" .
n

State the result this test recorded for "CCOc1ccc2c(C)cc(=O)oc2c1" .
n
